Provenance of the data: BindingDB's records for patent US20260014133

Biological target: DNA damage-binding protein 1/Protein cereblon (Homo sapiens)
pIC50: −log10 of the molar value.
OBSERVABLE: pIC50

INPUT: pIC50 of O=C1CCC(N2Cc3cc(NC(=O)Cc4ccccn4)ccc3C2=O)C(=O)N1 (stereo unspecified) [US20260014133, Compound 28] on DNA damage-binding protein 1/Protein cereblon (Homo sapiens)?
OUTPUT: > 6.00
